METHOD: Cmax in rat at 10 mg/kg, po after 1 hr
Type: ADME, organism-based
Set-up: dose 10 mg/kg, route oral
REPORTED CONDITIONS: in vivo
READOUT NAME: Cmax (µM)
Report the value in µM with no unit label.

input: Looking for the measured Cmax of CCN1CCCC(c2ccc(F)cc2)N2C(=O)/C(=C/c3ccc(-n4cnc(C)c4)c(OC)c3)N=C12 (single isomer, unassigned; (-)) , can you help?
output: 4.2

====

Quick list: Ratio per entry.
METHOD: Selectivity ratio of total amyloid beta to amyloid beta 42
Please reply with the value in numeric form only.

Solved cases below.
CCCCNC1=N/C(=C\c2ccc(-n3cnc(C)c3)c(OC)c2)C(=O)N1Cc1ccc(F)cc1 | 70
CCN1CC(c2ccc(F)cc2)N2C(=O)/C(=C/c3ccc(-n4cnc(C)c4)c(OC)c3)N=C12 (single isomer, unassigned; (-)) | 159
COc1cc(/C=C2\N=C(N)N(Cc3ccc(F)cc3)C2=O)ccc1-n1cnc(C)c1 | 139

input: Could you share which Ratio value was measured for CCN1CCCC(c2ccc(F)cc2)N2C(=O)/C(=C/c3ccc(-n4cnc(C)c4)c(OC)c3)N=C12 (racemic) ?
output: 169
